Tested on: HeLa cells
testSummary: Cytotoxicity assay (MTT assay)
Format: cell-based, human
conditionNotes: 48 h
metricName: IC50

Given the compound N.N.[Cl][Pt][Cl] [cisplatin, reference compound] and test system HeLa cells, the measured IC50 is 5.8 µM

====

System: HL-7702 normal cells
testSummary: Cytotoxicity assay (MTT assay)
Format: cell-based, human
conditionNotes: HL-7702, 20 μM, 48 h
metricName: Inhibitory rates (%)
Quick note: give the figure in %, leave out the unit.

Use these answered entries as a reference point.
// recorded Inhibitory rates (%) for O=C(NC[C@H](O)CO)c1cnc2c3c(cccc13)-c1ccccc1C2=O.[Cl-].[Cl-].[Pt+2] [ligand 3, S-(–)-FOA] : 27.5

So for O=C(NCC(O)CO)c1cnc2c3c(cccc13)-c1ccccc1C2=O.[Cl-].[Cl-].[Pt+2] (racemic) [ligand 1, R/S-(±)-FOA] , the logged Inhibitory rates (%) turned out to be 15.2

get_value(item= N.N.[Cl][Pt][Cl] [cisplatin, reference compound] , readout=Inhibitory rates (%)) returns 73.6

Proceeding to the next compound to report its Inhibitory rates (%).
Per the record, O=C(NC[C@@H](O)CO)c1cnc2c3c(cccc13)-c1ccccc1C2=O.[Cl-].[Cl-].[Pt+2] [ligand 2, R-(+)-FOA] has Inhibitory rates (%) of 30.6
